Endpoint: pIC50. System: MERTK (Homo sapiens, UniProt Q12866). Items follow.
Sequence (Q12866 21-999): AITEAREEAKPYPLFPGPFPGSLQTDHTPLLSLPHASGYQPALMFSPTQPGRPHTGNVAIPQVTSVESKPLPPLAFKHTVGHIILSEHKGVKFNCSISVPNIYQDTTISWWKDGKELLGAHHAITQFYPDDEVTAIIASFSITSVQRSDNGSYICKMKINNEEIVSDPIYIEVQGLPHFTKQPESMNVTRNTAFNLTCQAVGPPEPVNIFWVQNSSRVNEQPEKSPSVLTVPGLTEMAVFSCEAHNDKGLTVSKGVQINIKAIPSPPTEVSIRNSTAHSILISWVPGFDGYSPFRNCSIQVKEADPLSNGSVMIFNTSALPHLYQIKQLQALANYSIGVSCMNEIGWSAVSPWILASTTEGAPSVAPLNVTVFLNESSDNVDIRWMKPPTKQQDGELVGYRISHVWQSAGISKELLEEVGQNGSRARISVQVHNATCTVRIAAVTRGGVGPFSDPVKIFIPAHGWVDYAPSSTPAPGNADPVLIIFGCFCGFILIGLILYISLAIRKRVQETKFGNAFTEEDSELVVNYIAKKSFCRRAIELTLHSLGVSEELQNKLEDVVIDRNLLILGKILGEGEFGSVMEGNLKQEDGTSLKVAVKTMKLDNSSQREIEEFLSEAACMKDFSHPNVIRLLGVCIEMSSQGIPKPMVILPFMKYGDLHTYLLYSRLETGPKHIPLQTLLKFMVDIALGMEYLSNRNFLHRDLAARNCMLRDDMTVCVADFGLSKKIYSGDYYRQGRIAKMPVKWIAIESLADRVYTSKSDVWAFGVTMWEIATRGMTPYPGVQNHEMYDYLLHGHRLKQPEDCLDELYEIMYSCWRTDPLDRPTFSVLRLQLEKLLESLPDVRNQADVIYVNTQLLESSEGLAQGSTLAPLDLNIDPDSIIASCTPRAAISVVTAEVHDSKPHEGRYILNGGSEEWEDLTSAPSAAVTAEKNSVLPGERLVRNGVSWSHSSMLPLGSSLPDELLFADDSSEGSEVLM
pIC50: −log10 of the molar value.

[[record]]
molecule = "C[C@@H](CC(F)(F)F)Nc1ncc2c(O[C@@H]3C[C@H]4CC[C@@H](C3)N4C[C@H]3CCOC3)ncc([C@H]3CC[C@H](O)CC3)c2n1"
result = "≥ 7.00"

[[record]]
molecule = "CCCCNc1ncc2c(=O)n(C3CCOCC3)cc([C@H]3CC[C@H](O)CC3)c2n1"
result = "≥ 7.00"

[[record]]
molecule = "CC(=O)N[C@H]1C[C@@H](Oc2ncc([C@H]3CC[C@H](O)CC3)c3nc(N[C@@H](C)CC(F)(F)F)ncc23)C1"
result = "≥ 7.00"


Consider the additional molecule presented here.
Log: MERTK (Homo sapiens, UniProt Q12866), molecule CCCC(C)Nc1ncc2c(OC3CCOCC3)ncc([C@H]3CC[C@@H](N(C)C)CC3)c2n1 (some centres unmarked) , pIC50 = ≥ 7.00

The reported measurements were obtained from patent US20200291018A1.
